This collection of values is drawn from patent US9555038B2.

Test system: HCV replicon 1AY93H
Experiment: Cell-based HCV Replicon Assay A, replicon 1AY93H
Details: read-out: 1A Y93H IC50, replicon 1AY93H
pIC50: −log10 of the molar value.
Use 10 as the dividing line for pIC50, with the line itself on the TRUE side and lower values as FALSE.

Would you say CCc1ncc(C2Oc3cc(-c4cnc([C@@H]5CCCN5C(=O)[C@@H](NC(=O)OC)C(C)C)[nH]4)cc(F)c3-c3cc4cc(-c5cnc([C@@H]6CCCN6C(=O)C(NC(=O)OC)C6CCOC(C)(C)C6)[nH]5)ccc4n32)s1 (single isomer, unassigned) [Compound 38] shows pIC50 at minimum 10?
FALSE

Now this one: COC(=O)N[C@H](C(=O)N1CCC[C@H]1c1ncc(-c2cc(F)c3c(c2)OC(c2cnc(C4CCCCC4)s2)n2c-3cc3cc(-c4cnc([C@@H]5CCCN5C(=O)[C@@H](NC(=O)OC)C(C)C)[nH]4)ccc32)[nH]1)C(C)C (single isomer, unassigned) [Compound 528]
FALSE

Okay, and COC(=O)N[C@H](C(=O)N1CCC[C@H]1c1ncc(-c2cc(F)c3c(c2)OC(c2nc(C(F)(F)F)cs2)n2c-3cc3cc(-c4cnc([C@@H]5CCCN5C(=O)[C@@H](NC(=O)OC)C(C)C)[nH]4)ccc32)[nH]1)C(C)C (single isomer, unassigned) [Compound 419] ?
FALSE

Moving on to COC(=O)NC(C(=O)N1[C@@H]2C[C@@H]2C[C@H]1c1ncc(-c2ccc3c(c2)cc2n3C(c3cnc(C4(C)CCCC4)s3)Oc3cc(-c4cnc([C@@H]5CCCN5C(=O)[C@@H](NC(=O)OC)C(C)C)[nH]4)cc(F)c3-2)[nH]1)C1CCOC(C)(C)C1 (single isomer, unassigned) [Compound 477]
TRUE

// same read-out, input: CCc1ncc(C2Oc3cc(-c4cnc([C@@H]5CCCN5C(=O)[C@@H](NC(=O)OC)C(C)C)[nH]4)cc(F)c3-c3cc4cc(-c5cnc([C@@H]6CCCN6C(=O)C(NC(=O)OC)C6C[C@@H](C)O[C@@H](C)C6)[nH]5)ccc4n32)s1 (single isomer, unassigned) [Compound 36]
TRUE

Also COC(=O)NC(C(=O)N1CCC[C@H]1c1ncc(-c2ccc3c(c2)cc2n3C(c3cnc(C)s3)Oc3cc(-c4cnc([C@@H]5CCCN5C(=O)[C@@H](NC(=O)OC)C(C)C)[nH]4)cc(F)c3-2)[nH]1)C1C[C@@H](C)O[C@@H](C)C1 (single isomer, unassigned) [Compound 30] ?
TRUE

Try the compound COC(=O)NC(C(=O)N1[C@@H]2C[C@@H]2C[C@H]1c1ncc(-c2ccc3c(c2)cc2n3C(c3cnc(C4(C)CC4)s3)Oc3cc(-c4cnc([C@@H]5CCCN5C(=O)[C@@H](NC(=O)OC)C(C)C)[nH]4)cc(F)c3-2)[nH]1)C1C[C@@H](C)O[C@@H](C)C1 (single isomer, unassigned) [Compound 463]
TRUE

----------
Test system: HCV replicon 1AY93H
Assay: Cell-based HCV Replicon Assay A, replicon 1AY93H
Conditions: read-out: 1A Y93H IC50, replicon 1AY93H
Parameter: IC50. Scope: all listed entries.
Units required after the number.

[
  {
    "MOLECULE": "COC(=O)NC(C(=O)N1CCC[C@H]1c1ncc(-c2ccc3c(c2)cc2n3C(c3cnc(C)s3)Oc3cc(-c4cnc([C@@H]5CCCN5C(=O)[C@@H](NC(=O)OC)C(C)C)[nH]4)cc(F)c3-2)[nH]1)C1C[C@@H](C)O[C@@H](C)C1 (single isomer, unassigned) [Compound 29]",
    "SUBJECT_OF_TEST": "HCV replicon 1AY93H",
    "IC50": "1.09 nM"
  },
  {
    "MOLECULE": "COC(=O)NC(C(=O)N1CCC[C@H]1c1ncc(-c2ccc3c(c2)cc2n3C(c3cnc(-c4ccc(F)cc4)s3)Oc3cc(-c4cnc([C@@H]5CCCN5C(=O)[C@@H](NC(=O)OC)C(C)C)[nH]4)cc(F)c3-2)[nH]1)C1C[C@@H](C)O[C@@H](C)C1 (single isomer, unassigned) [Compound 79]",
    "SUBJECT_OF_TEST": "HCV replicon 1AY93H",
    "IC50": "0.0041 nM"
  },
  {
    "MOLECULE": "COC(=O)N[C@H](C(=O)N1CCC[C@H]1c1ncc(-c2cc(F)c3c(c2)OC(c2sc(C(C)C)nc2C)n2c-3cc3cc(-c4cnc([C@@H]5CCCN5C(=O)[C@@H](NC(=O)OC)C(C)C)[nH]4)ccc32)[nH]1)C(C)C (single isomer, unassigned)",
    "SUBJECT_OF_TEST": "HCV replicon 1AY93H",
    "IC50": "3.22 nM"
  }
]

Query for HCV replicon 1AY93H: what IC50 does the record show for COC(=O)NC(C(=O)N1CCC[C@H]1c1ncc(-c2ccc3c(c2)cc2n3C(c3cnc(C4CC4)s3)Oc3cc(-c4cnc([C@@H]5CCCN5C(=O)[C@@H](NC(=O)OC)C(C)C)[nH]4)cc(F)c3-2)[nH]1)C1C[C@@H](C)O[C@H](C)C1 (single isomer, unassigned) [Compound 305] ?
0.0031 nM

----------
Tested on: HCV replicon 1AY93H
Experiment: Cell-based HCV Replicon Assay A, replicon 1AY93H
Details: read-out: 1A Y93H IC50, replicon 1AY93H
MEASURED_PARAMETER: pIC50
Lab note: report pIC50 as minus log10 of the concentration in molar units, number only.

Known results for molecules:
[
  {
    "MOLECULE": "COC(=O)NC(C(=O)N1CCC[C@H]1c1ncc(-c2ccc3c(c2)cc2n3C(c3cnc(C(C)(C)O)s3)Oc3cc(-c4cnc([C@@H]5CCCN5C(=O)[C@@H](NC(=O)OC)C(C)C)[nH]4)cc(F)c3-2)[nH]1)C1C[C@@H](C)O[C@@H](C)C1 (single isomer, unassigned) [Compound 73]",
    "SUBJECT_OF_TEST": "HCV replicon 1AY93H",
    "MEASURED_VALUE": 9.23
  },
  {
    "MOLECULE": "CCc1ncc(C2Oc3cc(-c4cnc([C@@H]5CCCN5C(=O)[C@@H](NC(=O)OC)C(C)C)[nH]4)cc(F)c3-c3cc4cc(-c5cnc([C@@H]6C[C@H]7C[C@H]7N6C(=O)C(NC(=O)OC)C6CCOC(C)(C)C6)[nH]5)ccc4n32)s1 (single isomer, unassigned) [Compound 95]",
    "SUBJECT_OF_TEST": "HCV replicon 1AY93H",
    "MEASURED_VALUE": 10.43
  }
]

Entry COC(=O)NC(C(=O)N1CCC[C@H]1c1ncc(-c2ccc3c(c2)cc2n3C(c3cnc(C(C)C)s3)Oc3cc(-c4cnc([C@@H]5CCCN5C(=O)[C@@H](NC(=O)OC)C(C)C)[nH]4)cc(F)c3-2)[nH]1)C1CCOC(C)(C)C1 (single isomer, unassigned) [Compound 63] : reported pIC50 = ?
9.60

What about this molecule? COC(=O)NC(C(=O)N1[C@@H]2C[C@@H]2C[C@H]1c1ncc(-c2ccc3c(c2)cc2n3C(c3cnc(C(C)C)s3)Oc3cc(-c4cnc([C@@H]5CCCN5C(=O)[C@@H](NC(=O)OC)C(C)C)[nH]4)cc(F)c3-2)[nH]1)C1CCOC(C)(C)C1 (single isomer, unassigned) [Compound 68]
10.00

Now the same for COC(=O)NC(C(=O)N1[C@@H]2C[C@@H]2C[C@H]1c1ncc(-c2ccc3c(c2)c(F)c2n3C(c3cnc(C4CC4)s3)Oc3cc(-c4cnc([C@@H]5CCCN5C(=O)[C@@H](NC(=O)OC)C(C)C)[nH]4)cc(F)c3-2)[nH]1)C1CCOC(C)(C)C1 (single isomer, unassigned) [Compound 113]
9.17

Now try COC(=O)N[C@H](C(=O)N1CCC[C@H]1c1ncc(-c2cc(F)c3c(c2)OC(c2cnc(C4(C)CC4)s2)n2c-3cc3cc(-c4cnc([C@@H]5C[C@H]6C[C@H]6N5C(=O)[C@@H](NC(=O)OC)C(C)C)[nH]4)ccc32)[nH]1)C(C)C (single isomer, unassigned) [Compound 452] .
11.40

And what about the molecule COC(=O)NC(C(=O)N1[C@@H]2C[C@@H]2C[C@H]1c1ncc(-c2ccc3c(c2)cc2n3C(c3ncc(C4CC4)s3)Oc3cc(-c4cnc([C@@H]5CCCN5C(=O)[C@@H](NC(=O)OC)C(C)C)[nH]4)cc(F)c3-2)[nH]1)C1C[C@@H](C)O[C@@H](C)C1 (single isomer, unassigned) [Compound 65] ?
11.09

----------
System: HCV replicon 1B
Assay: Cell-based HCV Replicon Assay B, replicon 1B
Settings: Hepatitis C virus
Listed here: items and their measured pIC50.
# reply with the number alone; pIC50 is -log10 of concentration in mol/L

[
  {
    "MOLECULE": "COC(=O)N[C@H](C(=O)N1CCC[C@H]1c1ncc(-c2cc(F)c3c(c2)OC(c2cnc(C(F)F)s2)n2c-3cc3cc(-c4cnc([C@@H]5CCCN5C(=O)[C@@H](NC(=O)OC)C(C)C)[nH]4)ccc32)[nH]1)C(C)C (single isomer, unassigned)",
    "MEASURED_VALUE": 12.00
  },
  {
    "MOLECULE": "COC(=O)N[C@H](C(=O)N1CCC[C@H]1c1ncc(-c2cc(F)c3c(c2)OC(c2cnc(-c4ccc(OC)cc4)s2)n2c-3cc3cc(-c4cnc([C@@H]5CCCN5C(=O)[C@@H](NC(=O)OC)C(C)C)[nH]4)ccc32)[nH]1)C(C)C (single isomer, unassigned)",
    "MEASURED_VALUE": 12.00
  },
  {
    "MOLECULE": "COC(=O)N[C@H](C(=O)N1CCC[C@H]1c1ncc(-c2cc(F)c3c(c2)OC(c2cnc(-c4cccnc4)s2)n2c-3cc3cc(-c4cnc([C@@H]5CCCN5C(=O)[C@@H](NC(=O)OC)C(C)C)[nH]4)ccc32)[nH]1)C(C)C (mixture of isomers)",
    "MEASURED_VALUE": 10.82
  }
]

Fill blank: measured pIC50 of the molecule COC(=O)NC(C(=O)N1CCC[C@H]1c1ncc(-c2ccc3c(c2)cc2n3C(c3cnc(C4CCC4)s3)Oc3cc(-c4cnc([C@@H]5CCCN5C(=O)[C@@H](NC(=O)OC)C(C)C)[nH]4)cc(C)c3-2)[nH]1)C1C[C@@H](C)O[C@@H](C)C1 (single isomer, unassigned) is ____.
11.40

Note, next up: COC(=O)NC(C(=O)N1CCC[C@H]1c1ncc(-c2ccc3c(c2)cc2n3C(c3cnc(C4CC4)s3)Oc3cc(-c4cnc([C@@H]5CCCN5C(=O)[C@@H](NC(=O)OC)C(C)C)[nH]4)cc(C)c3-2)[nH]1)C1C[C@@H](C)O[C@H](C)C1 (single isomer, unassigned)
11.15

Could you do the same for COC(=O)NC(C(=O)N1CCC[C@H]1c1ncc(-c2ccc3c(c2)cc2n3C(c3ncc(C4CC4)s3)Oc3cc(-c4cnc([C@@H]5CCCN5C(=O)[C@@H](NC(=O)OC)C(C)C)[nH]4)cc(F)c3-2)[nH]1)C1C[C@@H](C)O[C@@H](C)C1 (single isomer, unassigned) , please?
11.52

What would you report for COC(=O)NC(C(=O)N1[C@@H]2C[C@@H]2C[C@H]1c1ncc(-c2ccc3c(c2)cc2n3C(c3ncc(C4CC4)s3)Oc3cc(-c4cnc([C@@H]5CCCN5C(=O)[C@@H](NC(=O)OC)C(C)C)[nH]4)cc(F)c3-2)[nH]1)C1C[C@@H](C)O[C@@H](C)C1 (single isomer, unassigned) ?
11.52
